targetDesc: HLA-B*18:01
methodSummary: IEDB peptide-MHC binding, purified MHC/competitive/radioactivity; filed as Kd, often an IC50 or EC50 that approximates it; bounds were set here for any values at or beyond the usual limits of such assays
studyConditions: source organism: Lymphocytic choriomeningitis virus (strain Armstrong)
quantityName: Kd

Query `REPVDQKQF` yields Kd of ≥ 47.6 µM

---

targetDesc: HLA-A*03:01
methodSummary: IEDB peptide-MHC binding, purified MHC/direct/fluorescence; filed as Kd, often an IC50 or EC50 that approximates it; bounds were set here for any values at or beyond the usual limits of such assays
studyConditions: source organism: Vibrio vulnificus YJ016
quantityName: Kd

Query `ATGFPFFDR` yields Kd of ≥ 20 µM

---

targetDesc: HLA-A*02:11
methodSummary: IEDB peptide-MHC binding, purified MHC/competitive/fluorescence; filed as Kd, often an IC50 or EC50 that approximates it; bounds were set here for any values at or beyond the usual limits of such assays
studyConditions: source organism: Salmonella enterica subsp. enterica serovar Typhi
pKd: −log10 of the molar value.
quantityName: pKd

Query `HVTQHWPQL` yields pKd of ≤ 4.70

---

targetDesc: HLA-B*15:01
methodSummary: IEDB peptide-MHC binding, purified MHC/direct/fluorescence; filed as Kd, often an IC50 or EC50 that approximates it; bounds were set here for any values at or beyond the usual limits of such assays
studyConditions: source organism: Camelpox virus CMS
pKd: −log10 of the molar value.
quantityName: pKd

Query `RVFDKADGK` yields pKd of ≤ 4.70

---

targetDesc: HLA-A*11:01
methodSummary: IEDB peptide-MHC binding, purified MHC/direct/fluorescence; filed as Kd, often an IC50 or EC50 that approximates it; bounds were set here for any values at or beyond the usual limits of such assays
studyConditions: source organism: Camelpox virus CMS
quantityName: pKd
Answers are plain numbers, as −log10 of the molar value.

Query `RVFDKADGK` yields pKd of 6.90

---

targetDesc: HLA-A*02:01
methodSummary: IEDB peptide-MHC binding, purified MHC/direct/fluorescence; filed as Kd, often an IC50 or EC50 that approximates it; bounds were set here for any values at or beyond the usual limits of such assays
studyConditions: source organism: Rickettsia typhi
pKd: −log10 of the molar value.
quantityName: pKd

Query `APILVVSGI` yields pKd of ≤ 4.70

---

targetDesc: HLA-A*26:01
methodSummary: IEDB peptide-MHC binding, purified MHC/direct/fluorescence; filed as Kd, often an IC50 or EC50 that approximates it; bounds were set here for any values at or beyond the usual limits of such assays
studyConditions: source organism: Histophilus somni
pKd: −log10 of the molar value.
quantityName: pKd

Query `QYPAFVLFI` yields pKd of ≤ 4.70

---

targetDesc: HLA-B*48:01
methodSummary: IEDB peptide-MHC binding, purified MHC/direct/fluorescence; filed as Kd, often an IC50 or EC50 that approximates it; bounds were set here for any values at or beyond the usual limits of such assays
studyConditions: source organism: Lassa virus Josiah
pKd: −log10 of the molar value.
quantityName: pKd

Query `NHYLCLNCL` yields pKd of ≤ 4.70

---

targetDesc: HLA-B*51:01
methodSummary: IEDB peptide-MHC binding, purified MHC/competitive/radioactivity; filed as Kd, often an IC50 or EC50 that approximates it; bounds were set here for any values at or beyond the usual limits of such assays
studyConditions: source organism: Hepacivirus hominis
quantityName: Kd

Query `RDWAHNSL` yields Kd of ≥ 87.3 µM
